Origin of measurements: PubChem BioAssay (Tox21)

# test: qHTS RealTime-Glo MT Cell Viability Assay in HepG2 cells - 0 hour (AID 1224889); further: nearly all actives have a fitted effect of over 50% in size
# test.conditions: RealTime-Glo luminescence; series mostly up to 76.8 µM
# From the text: U.S. Tox21 Program National Center for Advancing Translational Sciences [NCATS] NIH Chemical Genomics Center [NCGC] U.S. Environmental Protection Agency [EPA] National Institutes of Environmental Health Sciences [NIEHS] National Toxicology Program [NTP] U.S. Food and Drug Administration [FDA] Tox21 Assay Overview: Measure of cell viability is critical in the cell-base assay. Analysis of cell viability is necessary for the characterization of cell responses to cytotoxic drugs and environmental stress. […]
Inconclusive results are not listed. Activity calls are given as the source filed them. The call rests on the fitted dose curve; in most records, active means well fitted cell-killing curve with a large enough effect in the repeat runs; inconclusive means weak or mixed curves, or effect the other way; inactive means flat fitted curve, though single readings scatter.
measure: outcome

{"compound": "O=Nc1ccc(O)cc1", "outcome": "inactive"}
{"compound": "O=c1c(-c2ccc(O)cc2)coc2cc(O)ccc12", "outcome": "inactive"}
{"compound": "C[C@@H]1O[C@@H](OC[C@H]2O[C@@H](Oc3c(-c4ccc(O)c(O)c4)oc4cc(O)cc(O)c4c3=O)[C@H](O)[C@@H](O)[C@@H]2O)[C@H](O)[C@H](O)[C@H]1O", "outcome": "inactive"}
{"compound": "COCC(C)O (stereo not drawn)", "outcome": "inactive"}
{"compound": "CC1COc2ccccc2N1C(=O)C(Cl)Cl (stereo not drawn)", "outcome": "inactive"}
{"compound": "OCC#CCO", "outcome": "inactive"}
{"compound": "Oc1ccc2ccccc2c1N=Nc1ccccc1", "outcome": "inactive"}
{"compound": "CC1=C(/C=C/C(C)=C/C=C/C(C)=C/CO)C(C)(C)CCC1", "outcome": "inactive"}
{"compound": "CC1(C)CC(N=C=O)CC(C)(CN=C=O)C1 (stereo not drawn)", "outcome": "inactive"}
{"compound": "Cc1cc(NS(=O)(=O)c2ccc(N)cc2)no1", "outcome": "inactive"}

Required: outcome, one value per compound below.
1. CC(C)(CO)COC(=O)C(C)(C)CO
2. CCCCCCCCCCC=CC1CC(=O)OC1=O (stereo not drawn)
3. C/C=C(C)/C=C/C=C(C)C
4. c1ccc2[nH]cnc2c1
5. CC(C)(C)C(=O)C1C(=O)c2ccccc2C1=O

Reply:
1: inactive; 2: inactive; 3: inactive; 4: inactive; 5: inactive
